ASSAY: wild-type TIM10 yeast growth inhibition – luminescence, uHTS, counter-screen for tim10-1 yeast inhibitor project, primary screen (AID 463195);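 further: wild-type TIM10 isogenic control strain grown at permissive 25 °C; 0% = DMSO yeast wells and 100% = minimal medium wells without yeast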
EXPERIMENTAL CONTEXT: S. cerevisiae TIM10 strain growth, BacTiter-Glo luminescence, 24 h; at 10 µM; hits give high values
The campaign covered roughly 330,000 compounds. About 4,600 (1.4%) were called active. The entries come from a sample that favours actives as a whole.
OUTCOME MEASURE: inhibition

compound="CC1=C(C(N)=O)C(c2ccc3c(c2)OCO3)n2nc(-c3cccc(C)c3)nc2N1 (centres undefined)" outcome_measure=inhibition experimental_value="2.9% (inactive)"
compound=N#C/C(=C\c1ccccc1C(F)(F)F)C(=O)Nc1ccccc1F outcome_measure=inhibition experimental_value="47.5% (active)"
compound=COc1ccc(CN2CCC(n3nccc3NC(=O)CCCc3ccccc3)CC2)cc1C outcome_measure=inhibition experimental_value="4.88% (inactive)"
compound=COc1ccccc1CNC(=O)C1CCN(C(=O)[C@@H]2Cc3ccccc3CN2)CC1 outcome_measure=inhibition experimental_value="6.93% (inactive)"
compound=CC(C)c1ccc(NC(=O)COC(=O)c2ccc(CN3CCCC3=O)cc2)cc1 outcome_measure=inhibition experimental_value="1.1% (inactive)"
compound=CC(C)(C)C(=O)/C(C#N)=C/c1ccc(O)cc1 outcome_measure=inhibition experimental_value="-0.948% (inactive)"
compound="O=C(NC1(C(F)(F)F)NC(=O)N(C2CCCCC2)C1=O)c1ccco1 (centres undefined)" outcome_measure=inhibition experimental_value="-5.03% (inactive)"
compound=O=C(Nc1cccc(NC(=O)N2CCN(c3ccccc3)CC2)c1)N1CCN(c2ccccc2)CC1 outcome_measure=inhibition experimental_value="-4.11% (inactive)"
compound=CC(=O)c1ccc(OC(=O)N2CCOCC2)cc1 outcome_measure=inhibition experimental_value="9.97% (inactive)"
compound=CCN(CC)C(=O)COc1coc(CN2CCN(Cc3ccccc3)CC2)cc1=O outcome_measure=inhibition experimental_value="16.8% (inactive)"
compound="CC(=O)N1C(C)c2ccccc2C(C)(C)CC12CCCCC2 (centres undefined)" outcome_measure=inhibition experimental_value="41.9% (active)"
compound=COc1cc(C(=O)NCC(=O)N2CC=C(c3ccccc3)CC2)cc(OC)c1OC outcome_measure=inhibition experimental_value="20.4% (inactive)"
compound="O=C1NC(Nc2nc3ccccc3s2)(C(F)(F)F)C(=O)N1C1CCCCC1 (centres undefined)" outcome_measure=inhibition experimental_value="52.6% (active)"
compound="Cc1cc(=O)n2nc(N3CCCC(C(=O)N4CCN(C)CC4)C3)sc2n1 (centres undefined)" outcome_measure=inhibition experimental_value="2.79% (inactive)"
compound="O=C(NCc1ccccc1)C(c1ccco1)N(C(=O)c1csnn1)c1ccccc1F (centres undefined)" outcome_measure=inhibition experimental_value="5.22% (inactive)"
compound="CC1(c2ccccc2)NC(=O)N(CC(=O)N2CC(=O)Nc3ccccc32)C1=O (centres undefined)" outcome_measure=inhibition experimental_value="-7.18% (inactive)"
compound=CCCCCNC(=O)c1cccnc1SCC(=O)Nc1ccccc1OC outcome_measure=inhibition experimental_value="1.04% (inactive)"
compound=CC(C)NC(=O)/C(C#N)=C\c1ccc(N(C)C)c(Br)c1 outcome_measure=inhibition experimental_value="55.1% (active)"
compound="Cc1cccc(C)c1NC(=O)N1CC(C)OC(C)C1 (centres undefined)" outcome_measure=inhibition experimental_value="-0.538% (inactive)"
compound="O=C(CSc1ccc(-c2ccc(Br)cc2)nn1)NCC1CCCO1 (centres undefined)" outcome_measure=inhibition experimental_value="15.2% (inactive)"
compound=Cc1cc(SCc2c(F)cccc2Cl)nc(=O)[nH]1 outcome_measure=inhibition experimental_value="9.07% (inactive)"
compound="Cc1ccc(N(C(=O)c2sc(C)nc2C)C(C(=O)NC(C)(C)C)c2ccncc2)cc1 (centres undefined)" outcome_measure=inhibition experimental_value="-2.14% (inactive)"
compound=O=C(Nc1ccccc1F)c1ccccc1-c1ccc(C(F)(F)F)cc1 outcome_measure=inhibition experimental_value="9.5% (inactive)"
compound=COc1ccc2oc(=O)cc(CN3CCOCC3)c2c1 outcome_measure=inhibition experimental_value="-8.83% (inactive)"
compound=C=CCNC(=O)COC(=O)CNC(=O)c1cc(Cl)cc([N+](=O)[O-])c1 outcome_measure=inhibition experimental_value="-0.359% (inactive)"
compound=CC1CCN(C(=S)c2cccc([N+](=O)[O-])c2)CC1 outcome_measure=inhibition experimental_value="1.4% (inactive)"
compound=Cc1ccc2nc(Nc3ncc4c(n3)CC(C)(C)CC4=O)nc(C)c2c1 outcome_measure=inhibition experimental_value="5.07% (inactive)"
compound="CCOC(=O)C1=C(CSc2nccn2C)NC(=O)NC1c1ccc(OC)cc1 (centres undefined)" outcome_measure=inhibition experimental_value="9.58% (inactive)"
compound="CC1(c2ccccc2)CC(C)(C)N(C(=O)c2cc([N+](=O)[O-])cc([N+](=O)[O-])c2)c2ccccc21 (centres undefined)" outcome_measure=inhibition experimental_value="-3.92% (inactive)"
compound=Cc1cc2cc(CNC(=O)c3ccc(S(=O)(=O)N4CCOCC4)cc3)ccc2[nH]1 outcome_measure=inhibition experimental_value="7.18% (inactive)"
compound=Cc1cccc(C)c1NC(=O)CSc1nnc(-c2ccccc2)n1Cc1ccc2c(c1)OCO2 outcome_measure=inhibition experimental_value="-0.243% (inactive)"
compound=Cc1cc2oc(=O)cc(CN3CCN(S(=O)(=O)c4cccs4)CC3)c2cc1C(C)C outcome_measure=inhibition experimental_value="-1.14% (inactive)"
compound="c1ccc(-c2nnc3n2NC(c2ccc4c(c2)OCO4)S3)cc1 (centres undefined)" outcome_measure=inhibition experimental_value="57.8% (active)"
compound=O=C(CNS(=O)(=O)c1ccc(Br)s1)N1CCN(C(=O)c2ccco2)CC1 outcome_measure=inhibition experimental_value="-4.25% (inactive)"
compound=Oc1ccc2ccc3cccc[n+]3c2c1 outcome_measure=inhibition experimental_value="-22.6% (inactive)"
compound="COCCOC(=O)C1=C(C)N=c2s/c(=C\\c3cccs3)c(=O)n2C1c1cccs1 (centres undefined)" outcome_measure=inhibition experimental_value="21.4% (inactive)"
compound=C=CCNC(=S)NNC(=O)COc1c(Cl)cc(Cl)cc1Cl outcome_measure=inhibition experimental_value="57.7% (active)"
compound=COC(C[C@H](O)CC(=O)[C@@H](C)OCc1ccccc1)OC outcome_measure=inhibition experimental_value="8.38% (inactive)"
compound=Cc1cc2cc(CNC(=O)c3cccs3)ccc2[nH]1 outcome_measure=inhibition experimental_value="-0.032% (inactive)"
compound=COC(=O)c1ccc(/C=C2/C(=O)Oc3ccccc32)cc1 outcome_measure=inhibition experimental_value="25.7% (inactive)"
compound="C/C(=N\\NC(=O)C1(C)CC1(Br)Br)c1ccc(C)cc1C (centres undefined)" outcome_measure=inhibition experimental_value="10% (inactive)"
compound=O=C(Nc1ccc(Cl)c(Cl)c1)N1CC=C(c2ccccc2)CC1 outcome_measure=inhibition experimental_value="48.1% (active)"
compound=NS(=O)(=O)c1ccc(CCNC(=S)Nc2ccc(S(N)(=O)=O)cc2)cc1 outcome_measure=inhibition experimental_value="1.03% (inactive)"
compound=CC(=O)CSc1nnc(CSc2ncccn2)n1C1CCCCC1 outcome_measure=inhibition experimental_value="3.42% (inactive)"
